experimental-system: T1, DNA polymerase kappa catalytic core (hpol κ19-526) (Homo sapiens, UniProt Q9UBT6 19-526)
T1 sequence: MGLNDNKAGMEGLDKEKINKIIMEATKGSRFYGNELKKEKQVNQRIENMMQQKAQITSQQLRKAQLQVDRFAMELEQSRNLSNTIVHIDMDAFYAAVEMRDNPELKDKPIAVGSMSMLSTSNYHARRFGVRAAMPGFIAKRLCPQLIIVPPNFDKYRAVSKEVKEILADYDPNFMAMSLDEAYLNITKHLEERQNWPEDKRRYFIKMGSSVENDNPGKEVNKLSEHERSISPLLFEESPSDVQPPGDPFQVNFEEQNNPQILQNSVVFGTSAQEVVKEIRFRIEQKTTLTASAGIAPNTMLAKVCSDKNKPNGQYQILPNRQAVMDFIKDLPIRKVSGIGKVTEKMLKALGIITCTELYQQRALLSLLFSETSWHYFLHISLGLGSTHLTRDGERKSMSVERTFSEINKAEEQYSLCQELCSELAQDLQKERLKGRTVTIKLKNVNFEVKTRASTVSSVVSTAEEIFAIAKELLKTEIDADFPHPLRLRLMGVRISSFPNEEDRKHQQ
protocol: fluorescence polarization

- binder: "FAM-13/18mer primer-template DNA (dsDNA) DNA 1: TTTGGGGGAAGGATTC DNA 2: TCACGGAATCCTTCCCCC"
  reading-unit: "nM"
  Kd: 19
